Recorded Population Healthy Nuclei (%) by entry
Tested on: Fibroblast
Test description: Multiplex assay against human fibroblast
Type: toxicity, cell-based
Test parameters: 12 h, 1 µM, compound concentration 1 uM, replicate 2
Endpoint name: Population Healthy Nuclei (%)

| Compound | Endpoint name | Uom | Observed |
| --- | --- | --- | --- |
| COc1cc2c(Nc3ccc(NC(=O)c4ccccc4)cc3)ncnc2cc1OCCCN1CCOCC1 | Population Healthy Nuclei (%) | % | 46 |
| CCn1c(-c2nonc2N)nc2cnc(Oc3cccc(NC(=O)c4ccc(OCCN5CCOCC5)cc4)c3)cc21 [GSK-269962A] | Population Healthy Nuclei (%) | % | 72 |
| CN(C)CCOc1ccc(-c2nc(-c3ccncc3)c(-c3ccc4c(c3)CC/C4=N\O)[nH]2)cc1 | Population Healthy Nuclei (%) | % | 3 |
| CNc1oc(-c2cccc3ccccc23)nc1C#N | Population Healthy Nuclei (%) | % | 67 |
| Nc1nc2c(c(N3CCNCC3)n1)CCC1=C2[C@@H]2CCCC[C@@H]2O1 | Population Healthy Nuclei (%) | % | 61 |

The origin of these recorded values is ChEMBL document CHEMBL4689842.
